biological target: human TLR8 (Homo sapiens (Human), UniProt Q9NR97); assay: TLR8 inhibition reporter assay (HEK-Blue SEAP); conditions: read-out: TLR8 IC50; HEK-Blue human TLR8 cells, R848 15.9 μM;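 also: SEAP driven by IFN-β minimal promoter carrying NF-κB and AP-1 sites, compounds dosed 0.05 nM to 50 µM for 22 h, inhibition scaled between agonist-plus-DMSO and reference-inhibitor wells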
Sequence (Q9NR97 27-1041): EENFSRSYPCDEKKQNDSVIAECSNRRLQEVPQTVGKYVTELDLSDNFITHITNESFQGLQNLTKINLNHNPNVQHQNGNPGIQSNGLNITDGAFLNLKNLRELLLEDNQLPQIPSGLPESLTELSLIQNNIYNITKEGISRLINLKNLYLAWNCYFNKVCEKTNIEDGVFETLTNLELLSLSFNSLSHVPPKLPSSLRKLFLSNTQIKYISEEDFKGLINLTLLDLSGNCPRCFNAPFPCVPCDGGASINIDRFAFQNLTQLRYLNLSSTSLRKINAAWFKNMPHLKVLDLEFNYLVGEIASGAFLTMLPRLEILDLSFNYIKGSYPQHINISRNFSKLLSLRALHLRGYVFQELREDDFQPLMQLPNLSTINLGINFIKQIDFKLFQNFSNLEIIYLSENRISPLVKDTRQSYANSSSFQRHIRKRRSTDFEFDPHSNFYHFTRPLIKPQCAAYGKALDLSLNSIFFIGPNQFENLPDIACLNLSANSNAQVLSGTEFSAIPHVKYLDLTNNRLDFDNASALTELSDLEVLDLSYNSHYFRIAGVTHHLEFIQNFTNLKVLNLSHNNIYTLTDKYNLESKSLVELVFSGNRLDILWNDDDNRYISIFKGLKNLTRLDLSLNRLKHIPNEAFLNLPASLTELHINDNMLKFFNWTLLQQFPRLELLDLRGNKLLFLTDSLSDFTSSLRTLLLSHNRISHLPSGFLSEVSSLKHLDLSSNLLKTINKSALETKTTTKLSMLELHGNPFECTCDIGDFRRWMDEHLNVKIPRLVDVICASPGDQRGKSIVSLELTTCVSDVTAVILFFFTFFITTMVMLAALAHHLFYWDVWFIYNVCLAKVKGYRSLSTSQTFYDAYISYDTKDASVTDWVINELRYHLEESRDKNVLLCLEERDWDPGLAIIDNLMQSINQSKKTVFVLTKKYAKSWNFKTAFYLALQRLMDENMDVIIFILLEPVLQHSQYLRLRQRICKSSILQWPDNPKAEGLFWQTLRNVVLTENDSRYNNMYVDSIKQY
Here, each record is paired with measured IC50 data.
Supply the numeric figure in nM, leaving out any unit text.

The following molecules have reported results that may help.
In plain terms, COCCN1CC2(CC(c3ccc4[nH]c(-c5cn6ncnc6c(C)c5C)c(C(C)C)c4n3)C2)C1 [Example 1031] has a documented IC50 of 2

Cc1c(-c2[nH]c3ccc(C4CC5(C4)CN(CCS(C)(=O)=O)C5)nc3c2C(C)C)cn2ncnc2c1C [Example 1026] yielded IC50 of 6.3

# molecule Cc1c(-c2[nH]c3ccc(N4CCC(N(C)CC(=O)N(C)C)CC4)nc3c2C(C)C)cn2ncnc2c1C [Example 997] ; its IC50 = 2.4

What the record says about Cc1c(-c2[nH]c3ccc(N4C[C@H](C)N(CCC(N)=O)C[C@H]4C)nc3c2C(C)C)cn2ncnc2c1C [Example 847] : IC50 is 8.3

# IC50 (molecule: Cc1c(-c2[nH]c3ccc(C4CCC(NC(C)(C)C)CC4)nc3c2C(C)C)cn2ncnc2c1C (stereo not shown) [Example 1056] ) is 1.2

response.value for Cc1c(-c2[nH]c3ccc(N4CCN(C(=O)CN5CC6(C5)CS(=O)(=O)C6)CC4)nc3c2C(C)C)cn2ncnc2c1C [Example 951] (field: IC50) = 1.5

Query Cc1c(-c2[nH]c3ccc(C4CCC(N5CC6(CCOC6)C5)CC4)nc3c2C(C)C)cn2ncnc2c1C (stereo not shown) [Example 1065] yields IC50 of 1.1

// IC50 value for CC(C)c1c(-c2cn(C)c3ncccc23)[nH]c2ccc(C3CCC(N4CC5(COC5)C4)CC3)nc12 (stereo not shown) [Example 1036] : 2.7

Memo: Cc1c(-c2[nH]c3ccc(N4[C@H](C)CN(C(C)C)C[C@H]4C)nc3c2C(C)C)cn2ncnc2c1C [Example 865] , reported IC50: 72

Input Cc1c(-c2[nH]c3ccc(N4CCN(C(=O)[C@H](C)N(C)C)CC4)nc3c2C(C)C)cn2ncnc2c1C [Example 853] . Output IC50: 0.66

Next:
For reference, reported IC50 for Cc1c(-c2[nH]c3ccc(N4CCN(C5CCOC5)C[C@@H]4C)nc3c2C(C)C)cn2ncnc2c1C (stereo partly shown) [Example 814] stands at 2.3

Lab note: measured IC50 of COc1cc(-c2[nH]c3ccc(C4CCC(N5CC6(CCOC6)C5)CC4)nc3c2C(C)C)cn2ncnc12 (stereo not shown) [Example 1070] was 0.72

----------
target: human TLR9 (Homo sapiens (Human)); experiment: TLR9 inhibition reporter assay (HEK-Blue SEAP); details: read-out: TLR9 IC50; HEK-Blue cells overexpressing human TLR9, SEAP reporter, ODN2006 5 nM
Sequence (Q9NR96 26-1032): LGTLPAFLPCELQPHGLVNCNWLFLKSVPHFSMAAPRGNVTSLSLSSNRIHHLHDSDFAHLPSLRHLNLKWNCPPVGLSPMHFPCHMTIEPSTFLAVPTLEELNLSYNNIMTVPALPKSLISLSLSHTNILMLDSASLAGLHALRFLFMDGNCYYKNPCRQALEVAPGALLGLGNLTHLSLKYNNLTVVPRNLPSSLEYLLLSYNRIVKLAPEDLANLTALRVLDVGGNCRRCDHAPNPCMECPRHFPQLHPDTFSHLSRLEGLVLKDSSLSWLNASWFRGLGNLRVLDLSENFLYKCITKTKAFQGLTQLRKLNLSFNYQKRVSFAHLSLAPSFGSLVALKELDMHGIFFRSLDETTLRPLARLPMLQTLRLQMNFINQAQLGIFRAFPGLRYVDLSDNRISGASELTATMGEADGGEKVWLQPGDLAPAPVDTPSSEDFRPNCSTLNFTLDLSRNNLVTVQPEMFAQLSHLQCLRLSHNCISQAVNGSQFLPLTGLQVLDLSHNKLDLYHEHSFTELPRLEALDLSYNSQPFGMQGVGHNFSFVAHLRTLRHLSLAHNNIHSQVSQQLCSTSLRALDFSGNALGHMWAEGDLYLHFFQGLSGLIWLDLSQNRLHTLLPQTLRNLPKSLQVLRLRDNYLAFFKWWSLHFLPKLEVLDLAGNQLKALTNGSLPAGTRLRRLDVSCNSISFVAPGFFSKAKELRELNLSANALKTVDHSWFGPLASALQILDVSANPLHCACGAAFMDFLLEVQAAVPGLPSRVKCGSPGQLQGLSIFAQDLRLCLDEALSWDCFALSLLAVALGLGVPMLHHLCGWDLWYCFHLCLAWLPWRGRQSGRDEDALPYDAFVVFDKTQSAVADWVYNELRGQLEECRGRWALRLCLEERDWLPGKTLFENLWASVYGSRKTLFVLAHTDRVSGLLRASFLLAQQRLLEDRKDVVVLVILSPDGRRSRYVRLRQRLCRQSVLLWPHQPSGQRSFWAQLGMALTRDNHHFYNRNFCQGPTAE
The threshold is 2000 nM. Values of IC50 beneath it are tagged true; values meeting or exceeding it are tagged false.

Below 2000 nM on IC50? Entry `Cc1cc(-c2[nH]c3ccc(C4CCN(C(=O)CN(C)C)CC4)nc3c2C(C)C)cn(C)c1=O`
true

Hi there! Is IC50 for COCCNC1CCC(c2ccc3[nH]c(-c4cn5ncnc5c(C)c4C)c(C(C)C)c3n2)CC1 (stereo not shown) [Example 429] below 2000 nM, do you know?
false

In plain terms, does `CCN1CC2(C1)CN(c1ccc3[nH]c(-c4cn5ncnc5c(C)c4C)c(C(C)C)c3n1)C2` come in under 2000 nM for IC50?
false

Consider the compound Cc1c(-c2[nH]c3ccc(C4CCC(N(CC#N)CC5(S(C)(=O)=O)CC5)CC4)nc3c2C(C)C)cn2ncnc2c1C (stereo not shown) [Example 478] . Is its IC50 strictly less than 2000 nM?
false

Check if IC50 falls below 2000 nM for Cc1c(-c2[nH]c3ccc(C4CN(C(C)C)CCO4)nc3c2C(C)C)cn2ncnc2c1C (stereo not shown) .
false

Dear reviewer, please state whether COc1cc(-c2[nH]c3ccc(C4CCC(NC5COC5)C4)nc3c2C(C)C)cn2ncnc12 (stereo not shown) has IC50 strictly beneath 2000 nM.
false

Please determine if Cc1cc(-c2[nH]c3ccc(C4CNCCO4)nc3c2C(C)C)cn(C)c1=O (stereo not shown) [Example 669] is below 2000 nM in terms of IC50.
false

Please determine if `Cc1cc(-c2[nH]c3cc(C)c(C4CCNCC4)nc3c2C(C)C)cc(C)n1` is below 2000 nM in terms of IC50.
true

Lab note: confirm whether the reported IC50 for this compound is below 2000 nM, equality not counting. compound: Cc1cc(-c2[nH]c3ccc(C4CN(CC#N)CCO4)nc3c2C(C)C)cn(C)c1=O (stereo not shown)
false

Here's an entry: COCCNC1CCC(c2ccc3[nH]c(-c4cn5ncnc5c(C)c4C)c(C(C)C)c3n2)CC1 (stereo not shown) [Example 431] . Is its IC50 below 2000 nM?
false

Continuing:
Does the reported IC50 of `Cc1c(-c2[nH]c3ccc(C4CCN(CC(=O)N(C)C)CC4)nc3c2C(C)C)cn(C)c(=O)c1C` stay below 2000 nM?
false

Decide: IC50 of `COc1cc(-c2[nH]c3ccc(C4CCN(CC(C)(C)O)CC4)nc3c2C(C)C)cn2ncnc12` strictly below 2000 nM?
true

Reference source: patent US10544143B2
